Data origin, for the record: paper PMC2756588

Target: T1, Sla1-2, P32790
T1 sequence (P32790 60-140, looked up): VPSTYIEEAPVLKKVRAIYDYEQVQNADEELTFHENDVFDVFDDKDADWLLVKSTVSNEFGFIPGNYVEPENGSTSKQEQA
Test: SPOT array
Conditions: median of control spots 712
PROPERTY_MEASURED: SPOT intensity
Please give only the number in your answer, with no unit.

- BINDER: "EREKALPPIPFTTTL"
  SPOT intensity: 1
- BINDER: "PPIPIVPSSPAPPLP"
  SPOT intensity: 0
- BINDER: "KWVRRPKLMTPLTFS"
  SPOT intensity: 0
- BINDER: "KFIPSRPAPKPPSSA"
  SPOT intensity: 0
- BINDER: "DLPLPDLPPEPPTEL"
  SPOT intensity: 0
- BINDER: "YVRRRPRVRLEPLLS"
  SPOT intensity: 3
- BINDER: "SSTPTTPERPKRKSG"
  SPOT intensity: 0
- BINDER: "AIPPPVPNRPGGTTN"
  SPOT intensity: 0
- BINDER: "KRRTSLFPWLHKPGI"
  SPOT intensity: 0
- BINDER: "VNFRRIPTGPDSPPT"
  SPOT intensity: 0

Task: Give its SPOT intensity value. Item: RRSKSLPITPKSIFN
Output: 1

Task: For ALFRLSFFFPLDPAY , what is its reported SPOT intensity?
Output: 4
